- Tested Target: recombinant human PAD2 (human, UniProt Q9Y2J8 1-665)
- Sequence (Q9Y2J8 whole entry): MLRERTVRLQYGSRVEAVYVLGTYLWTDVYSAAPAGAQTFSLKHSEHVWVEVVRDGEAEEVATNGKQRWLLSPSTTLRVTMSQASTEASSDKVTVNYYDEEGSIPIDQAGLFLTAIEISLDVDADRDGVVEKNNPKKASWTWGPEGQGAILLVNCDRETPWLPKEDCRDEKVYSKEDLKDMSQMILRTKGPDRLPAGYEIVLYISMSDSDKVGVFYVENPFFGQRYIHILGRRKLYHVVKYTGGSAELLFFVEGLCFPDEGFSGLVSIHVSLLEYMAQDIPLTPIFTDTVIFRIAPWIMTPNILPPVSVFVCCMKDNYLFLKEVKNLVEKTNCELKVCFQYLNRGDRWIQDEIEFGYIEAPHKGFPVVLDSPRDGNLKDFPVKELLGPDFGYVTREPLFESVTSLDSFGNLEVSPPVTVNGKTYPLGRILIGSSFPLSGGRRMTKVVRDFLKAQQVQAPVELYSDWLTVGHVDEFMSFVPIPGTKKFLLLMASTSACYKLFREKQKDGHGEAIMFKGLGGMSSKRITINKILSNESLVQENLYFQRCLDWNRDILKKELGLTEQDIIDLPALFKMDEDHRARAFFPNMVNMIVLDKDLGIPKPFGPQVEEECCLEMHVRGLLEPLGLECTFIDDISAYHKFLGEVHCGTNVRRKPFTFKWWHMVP
- Assay Name: cell-based or functional assay
Square brackets hold non-standard residues; d marks the D form. Orn(fluoroacetimidoyl) = N=C(CF)NCCC[C@H](N)C(=O)O
Measured Metric: conversion of 0708-30 by PAD2, 100 µM inhibitor (0 µM: 68) (%)
Answers are plain numbers, in %.

Ac-KWH[Orn(fluoroacetimidoyl)]DFF-NH2 (SMILES CC(=O)N[C@@H](CCCCN)C(=O)N[C@@H](Cc1c[nH]c2ccccc12)C(=O)N[C@@H](Cc1c[nH]cn1)C(=O)N[C@@H](CCCNC(=N)CF)C(=O)N[C@@H](CC(=O)O)C(=O)N[C@@H](Cc1ccccc1)C(=O)N[C@@H](Cc1ccccc1)C(N)=O) [0748-09FA] ... 5

Return reported conversion of 0708-30 by PAD2, 100 µM inhibitor (0 µM: 68) values for all items listed beneath this line.
1. Ac-KHD[Orn(fluoroacetimidoyl)]DFL-NH2 (SMILES CC(=O)N[C@@H](CCCCN)C(=O)N[C@@H](Cc1c[nH]cn1)C(=O)N[C@@H](CC(=O)O)C(=O)N[C@@H](CCCNC(=N)CF)C(=O)N[C@@H](CC(=O)O)C(=O)N[C@@H](Cc1ccccc1)C(=O)N[C@@H](CC(C)C)C(N)=O) [0748-25FA]
2. Ac-KFD[Orn(fluoroacetimidoyl)]DFI-NH2 (SMILES CC[C@H](C)[C@H](NC(=O)[C@H](Cc1ccccc1)NC(=O)[C@H](CC(=O)O)NC(=O)[C@H](CCCNC(=N)CF)NC(=O)[C@H](CC(=O)O)NC(=O)[C@H](Cc1ccccc1)NC(=O)[C@H](CCCCN)NC(C)=O)C(N)=O) [0743-58FA]

11
4

Hello, I would appreciate it if you could give conversion of 0708-30 by PAD2, 100 µM inhibitor (0 µM: 68) for each entry below.
1. Ac-KLH[Orn(fluoroacetimidoyl)]EWM-NH2 (SMILES CSCC[C@H](NC(=O)[C@H](Cc1c[nH]c2ccccc12)NC(=O)[C@H](CCC(=O)O)NC(=O)[C@H](CCCNC(=N)CF)NC(=O)[C@H](Cc1c[nH]cn1)NC(=O)[C@H](CC(C)C)NC(=O)[C@H](CCCCN)NC(C)=O)C(N)=O) [0748-17FA]
2. Ac-HFD[Orn(fluoroacetimidoyl)]EWI-NH2 (SMILES CC[C@H](C)[C@H](NC(=O)[C@H](Cc1c[nH]c2ccccc12)NC(=O)[C@H](CCC(=O)O)NC(=O)[C@H](CCCNC(=N)CF)NC(=O)[C@H](CC(=O)O)NC(=O)[C@H](Cc1ccccc1)NC(=O)[C@H](Cc1c[nH]cn1)NC(C)=O)C(N)=O) [0748-01FA]

24
21
